This collection of values is drawn from patent US6440400B1.

- Test system: B-16 melanoma cells
- EXPERIMENT NOTES: Melanin production inhibiting effect on chromatophore (visual whiteness of cell pellets)
- Assay type: cell-based
- Parameters: key: −: Equal to solvent control (black); +: Slightly different from solvent control (dark gray); ++: Markedly different from solvent control (pale gray); +++: No coloring of cells (white)
- ASSAY CONTEXT: 1.6 ppm, 3 days culture with sample
TEST READOUT: whiteness of cell pellets, evaluated visually

COMPOUND: CC(=O)CCC1=C(C)CCCC1(C)C [Dihydro-β-ionone, dihydro-β-ionone, reference compound]
SYSTEM UNDER TEST: B-16 melanoma cells
RESULT: −

COMPOUND: CC(C)=CCCC(=O)C=CC1C(C)CCCC1(C)C (stereo not drawn) [Compound 1′l]
SYSTEM UNDER TEST: B-16 melanoma cells
RESULT: +

COMPOUND: CC1CCCC(C)(C)C1C=CC(=O)C(C)(C)C (stereo not drawn) [1′h]
SYSTEM UNDER TEST: B-16 melanoma cells
RESULT: +

COMPOUND: CCCC(O)C=CC1C(C)CCCC1(C)C (stereo not drawn) [1″c]
SYSTEM UNDER TEST: B-16 melanoma cells
RESULT: ++

COMPOUND: CCC(O)C=CC1C(C)CCCC1(C)C (stereo not drawn) [1″b]
SYSTEM UNDER TEST: B-16 melanoma cells
RESULT: +

COMPOUND: CCCCCC(O)C(C)=CC1C(C)CCCC1(C)C (stereo not drawn) [Compound 1″x]
SYSTEM UNDER TEST: B-16 melanoma cells
RESULT: +

---

- Tested on: B-16 melanoma cells
- EXPERIMENT NOTES: Melanin production inhibiting effect on chromatophore (visual whiteness of cell pellets)
- Format: cell-based
- Parameters: key: −: Equal to solvent control (black); +: Slightly different from solvent control (dark gray); ++: Markedly different from solvent control (pale gray); +++: No coloring of cells (white)
- ASSAY CONTEXT: 1.6 ppm, 3 days culture with sample
- Description: A plastic culture flask (25 cm^2) was inoculated with 8×10^4 B-16 melanoma cells, which were incubated in a DMEN medium (Nippon Suisan Kaisha, Ltd.) containing 10% serum in the presence of 5% CO2 at 37° C. After 3 days, a test sample diluted with EtOH was added to the medium at a concentration of 0.4, 0.8, 1.6, 3.1 and 6.2 ppm and the culture was continued for further 3 days. […] The cells thus obtained were washed once with PBS and then the pellets were evaluated visually for their whiteness. […]
TEST READOUT: whiteness of cell pellets, evaluated visually

MOLECULE: CCCCCCCC(O)CCC1C(C)CCCC1(C)C (stereo not shown)
RESULT: +
//
MOLECULE: OC[C@H]1O[C@@H](Oc2ccc(O)cc2)[C@H](O)[C@@H](O)[C@@H]1O [ARBUTIN, arbutin, reference compound]
RESULT: −
//
MOLECULE: CC(C)CCCC(O)C=CC1C(C)CCCC1(C)C (stereo not shown)
RESULT: +++
//
MOLECULE: CCC(O)CCC1C(C)CCCC1(C)C (stereo not shown)
RESULT: +
//
MOLECULE: CCCCCC(O)CCC1C(C)CCCC1(C)C (stereo not shown)
RESULT: ++
//
MOLECULE: CCCCCC(=O)C=CC1C(C)CCCC1(C)C (stereo not shown)
RESULT: +++
//
MOLECULE: CCCC(O)CCC1C(C)CCCC1(C)C (stereo not shown)
RESULT: +
//
MOLECULE: CC(C)=CCCC(O)C=CC1C(C)CCCC1(C)C (stereo not shown)
RESULT: +++
//
MOLECULE: CC(C)CC(O)C=CC1C(C)CCCC1(C)C (stereo not shown)
RESULT: +++
//
MOLECULE: CCCCCCCC(O)C=CC1C(C)CCCC1(C)C (stereo not shown)
RESULT: +
//
MOLECULE: CCC(=O)C=CC1C(C)CCCC1(C)C (stereo not shown)
RESULT: +
//
MOLECULE: CCC(O)C(C)=CC1C(C)CCCC1(C)C (stereo not shown)
RESULT: +
//
MOLECULE: CCCCCC(O)C=CC1C(C)CCCC1(C)C (stereo not shown)
RESULT: +++
//
MOLECULE: CCCCCCCC(=O)C=CC1C(C)CCCC1(C)C (stereo not shown)
RESULT: +
//
MOLECULE: CC(C)C(O)CCC1C(C)CCCC1(C)C (stereo not shown)
RESULT: +
//
MOLECULE: CCCC(=O)C=CC1C(C)CCCC1(C)C (stereo not shown)
RESULT: +
//
MOLECULE: CC(C)CCCC(=O)C=CC1C(C)CCCC1(C)C (stereo not shown)
RESULT: ++
//
MOLECULE: CC(=O)/C=C/C1=C(C)CCCC1(C)C [β-Ionone, β-ionone, reference compound]
RESULT: −
//
MOLECULE: CC(C)CC(=O)C=CC1C(C)CCCC1(C)C (stereo not shown)
RESULT: +
//
MOLECULE: CC(O)CCC1C(C)CCCC1(C)C (stereo not shown) [Tetrahydroionol, tetrahydroionol, reference compound]
RESULT: −
//
MOLECULE: CC(C)CC(O)CCC1C(C)CCCC1(C)C (stereo not shown)
RESULT: ++
//
MOLECULE: CCCCCC(=O)C(C)=CC1C(C)CCCC1(C)C (stereo not shown)
RESULT: +
